Target: MCL-1/Bim interaction (recombinant human MCL-1 protein, residues 171-327; biotinylated human Bim peptide, residues 51-76) (Homo sapiens (Human), UniProt Q07820)
Sequence (Q07820 171-327): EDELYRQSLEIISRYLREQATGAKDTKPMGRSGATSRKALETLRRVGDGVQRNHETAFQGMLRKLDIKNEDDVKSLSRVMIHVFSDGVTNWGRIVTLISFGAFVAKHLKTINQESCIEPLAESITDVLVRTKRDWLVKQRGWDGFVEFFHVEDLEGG
Experiment: MCL-1/Bim Binding AlphaLISA Assay
Settings: 0.0625 nM 6xHis-Mcl-1 (171-327), 0.0625 nM biotinylated-Bim peptide
Mark t for IC50 under 90 pM, f if at or over.

Examples with answers:
molecule	assignedLabel
CCn1nccc1CCC(=O)N[S@@]1(=O)=NC(=O)c2ccc3c(c2)N(C[C@@H]2CC[C@H]2[C@@H](OC)/C=C/CCC1)C[C@@]1(CCCc2cc(Cl)ccc21)CO3 [Example 45]	f
CO[C@H]1/C=C/CCC[S@@](=O)(NC(=O)CCC2CC2)=NC(=O)c2ccc3c(c2)N(C[C@@H]2CC[C@H]21)C[C@@]1(CCCc2cc(Cl)ccc21)CO3 [Example 81]	f
CO[C@H]1/C=C/C[C@H](C)C[S@@](=O)(NC(=O)c2cc3n(c2F)CCCC3)=NC(=O)c2ccc3c(c2)N(C[C@@H]2CC[C@H]21)C[C@@]1(CCCc2cc(Cl)ccc21)CO3 [Example 174]	f
CO[C@H]1/C=C/C[C@H](C)[C@@H](C)[S@@](=O)(NC(=O)CO[C@H]2CCOC[C@H]2F)=NC(=O)c2ccc3c(c2)N(C[C@@H]2CC[C@H]21)C[C@@]1(CCCc2cc(Cl)ccc21)CO3 [Example 133]	t
CO[C@H]1/C=C/C[C@H](C)C[S@@](=O)(NC(=O)C2CC(O)(C(F)(F)F)C2)=NC(=O)c2ccc3c(c2)N(C[C@@H]2CC[C@H]21)C[C@@]1(CCCc2cc(Cl)ccc21)CO3 (stereo partly shown) [Example 198]	t

Consider the additional molecule presented here.
# input Does the reported IC50 of CO[C@H]1/C=C/C[C@H](C)C[S@@](=O)(NC(=O)c2cc3c([nH]2)CCOC3)=NC(=O)c2ccc3c(c2)N(C[C@@H]2CC[C@H]21)C[C@@]1(CCCc2cc(Cl)ccc21)CO3 [Example 158] stay below 90 pM?
# output f

* * *

Parameter: IC50. Scope: all listed entries.
Molecular target: MCL-1/Bim interaction (recombinant human MCL-1 protein, residues 171-327; biotinylated human Bim peptide, residues 51-76) (Homo sapiens (Human), UniProt Q07820)
Assay: MCL-1/Bim Binding AlphaLISA Assay
Details: 0.0625 nM 6xHis-Mcl-1 (171-327), 0.0625 nM biotinylated-Bim peptide
Kindly provide the numeric value in nM only, without the unit symbol.

Solved cases (2 shown):
compound	IC50 (nM)
CO[C@H]1/C=C/CCC[S@@](=O)(NC(=O)CCC2CCCC2)=NC(=O)c2ccc3c(c2)N(C[C@@H]2CC[C@H]21)C[C@@]1(CCCc2cc(Cl)ccc21)CO3 [Example 82]	1.1
C[C@@H]1[C@@H](C)C/C=C/[C@H](O)[C@@H]2CC[C@H]2CN2C[C@@]3(CCCc4cc(Cl)ccc43)COc3ccc(cc32)C(=O)N=[S@]1(=O)NC(=O)c1cc2n(c1)CC(C)(CN1CCOCC1)OC2 (some centres unmarked) [Example 259]	0.098

response.value for CO[C@H]1/C=C/C[C@H](C)C[S@@](=O)(NC(=O)c2cc3n(c2)CCN(S(C)(=O)=O)C3)=NC(=O)c2ccc3c(c2)N(C[C@@H]2CC[C@H]21)C[C@@]1(CCCc2cc(Cl)ccc21)CO3 [Example 455] (field: IC50) = 0.147

response.value for CO[C@H]1/C=C/C[C@H](C)C[S@@](=O)(NC(=O)N2CCN3CCOC[C@H]3C2)=NC(=O)c2ccc3c(c2)N(C[C@@H]2CC[C@H]21)C[C@@]1(CCCc2cc(Cl)ccc21)CO3 [Example 334] (field: IC50) = 0.041

response.value for CO[C@H]1/C=C/CCC[S@@](=O)(NC(=O)CC(C)C)=NC(=O)c2ccc3c(c2)N(C[C@@H]2CC[C@H]21)C[C@@]1(CCCc2cc(Cl)ccc21)CO3 [Example 26] (field: IC50) = 1.8

* * *

Target: MCL-1/Bim interaction (recombinant human MCL-1 protein, residues 171-327; biotinylated human Bim peptide, residues 51-76) (Homo sapiens (Human), UniProt Q07820)
Test: MCL-1/Bim Binding AlphaLISA Assay
Conditions: 0.0625 nM 6xHis-Mcl-1 (171-327), 0.0625 nM biotinylated-Bim peptide
Parameter: IC50. Scope: all listed entries.
Kindly provide the numeric value in nM only, without the unit symbol.

molecule	IC50, nM
CO[C@H]1/C=C/C[C@H](C)C[S@@](=O)(NC(=O)NCC2CC2)=NC(=O)c2ccc3c(c2)N(C[C@@H]2CC[C@H]21)C[C@@]1(CCCc2cc(Cl)ccc21)CN3	0.1

response.value for COC1CN(C(=O)N[S@@]2(=O)=NC(=O)c3ccc4c(c3)N(C[C@@H]3CC[C@H]3[C@@H](O)/C=C/C[C@H](C)C2)C[C@@]2(CCCc3cc(Cl)ccc32)CO4)C1 (field: IC50) = 0.085

response.value for CO[C@H]1/C=C/C[C@H](C)C[S@@](=O)(NC(=O)N2CC(C#N)C2)=NC(=O)c2ccc3c(c2)N(C[C@@H]2CC[C@H]21)C[C@@]1(CCCc2cc(Cl)ccc21)CO3 (field: IC50) = 0.016

response.value for COC[C@@H]1Cn2cc(C(=O)N[S@@]3(=O)=NC(=O)c4ccc5c(c4)N(C[C@@H]4CC[C@H]4[C@@H](O)/C=C/C[C@H](C)[C@H]3C)C[C@@]3(CCCc4cc(Cl)ccc43)CO5)cc2CO1 (field: IC50) = 0.037

response.value for CO[C@H]1/C=C/C[C@H](C)C[S@@](=O)(NC(=O)c2cn(C)nc2OCC2CC2)=NC(=O)c2ccc3c(c2)N(C[C@@H]2CC[C@H]21)C[C@@]1(CCCc2cc(Cl)ccc21)CO3 (field: IC50) = 0.046

response.value for CCO[C@]1(C)C[C@H](NC(=O)N[S@@]2(=O)=NC(=O)c3ccc4c(c3)N(C[C@@H]3CC[C@H]3[C@@H](OC)/C=C/C[C@H](C)C2)C[C@@]2(CCCc3cc(Cl)ccc32)CO4)C1 (field: IC50) = 0.043

response.value for CO[C@H]1/C=C/C[C@H](C)C[S@@](=O)(NC(=O)c2cc3n(n2)CCCO3)=NC(=O)c2ccc3c(c2)N(C[C@@H]2CC[C@H]21)C[C@@]1(CCCc2cc(Cl)ccc21)CO3 (field: IC50) = 0.041

* * *

Biological target: MCL-1/Bim interaction (recombinant human MCL-1 protein, residues 171-327; biotinylated human Bim peptide, residues 51-76) (Homo sapiens (Human))
Experiment: MCL-1/Bim Binding AlphaLISA Assay
Conditions: 0.0625 nM 6xHis-Mcl-1 (171-327), 0.0625 nM biotinylated-Bim peptide
Method: MCL-1/Bim Binding AlphaLISA Assay. Inhibition of the MCL-1 and Bim interaction was measured in the following AlphaLISA assay. Recombinant human MCL-1 protein (C-terminal 6×His Tagged Mcl-1 containing residues 171-327) was generated at Gilead Sciences, Inc. (Foster City, Calif.). […] The AlphaLISA assay was performed in a 384-well Proxiplate in a total volume of 40 μL. […] The reaction plates were then read on an Envision multimode reader (PerkinElmer) using AlphaScreen settings. […]
Parameter: IC50. Scope: all listed entries.
Kindly provide the numeric value in nM only, without the unit symbol.

Solved cases (4 shown):
compound	u	IC50
COc1nn(C)cc1C(=O)N[S@@]1(=O)=NC(=O)c2ccc3c(c2)N(C[C@@H]2CC[C@H]2[C@@H](OC)/C=C/[C@H](O)[C@H](C)[C@H]1C)C[C@@]1(CCCc2cc(Cl)ccc21)CO3	nM	0.058
CO[C@H]1/C=C/C[C@H](C)C[S@@](=O)(NC(=O)c2cn(C)nc2N)=NC(=O)c2ccc3c(c2)N(C[C@@H]2CC[C@H]21)C[C@@]1(CCCc2cc(Cl)ccc21)CO3	nM	0.087
CO[C@H]1/C=C/C[C@H](C)C[S@@](=O)(NC(=O)C2CC3(CCOCC3)C2)=NC(=O)c2ccc3c(c2)N(C[C@@H]2CC[C@H]21)C[C@@]1(CCCc2cc(Cl)ccc21)CO3	nM	0.114
CCn1cc(C(=O)N[S@@]2(=O)=NC(=O)c3ccc4c(c3)N(C[C@@H]3CC[C@H]3[C@@H](OC)/C=C/CCC2)C[C@@]2(CCCc3cc(Cl)ccc32)CO4)cn1 [Example 104]	nM	0.1

// moving on: another record for IC50
response.value for COc1cc(C(=O)N[S@@]2(=O)=NC(=O)c3ccc4c(c3)N(C[C@@H]3CC[C@H]3[C@@H](OC)/C=C/C[C@H](C)C2)C[C@@]2(CCCc3cc(Cl)ccc32)CO4)c(OC)nn1 (field: IC50) = 0.089

Hello, the source for this data is patent US10703733B2, in case you need it.
